Source: patent US20070004715A1

Attribute: Aβ aggregation inhibition (%)
target-entity: fluo-Aβ1-40 (Homo sapiens, UniProt P05067)
Construct: added 100 nM of fluo-Aβ1-40 in 100 μl
Sequence (P05067 672-711): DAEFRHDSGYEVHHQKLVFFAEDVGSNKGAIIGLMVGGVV
test-method-notes: Aβ Aggregation Assay (Synthaloid plates, fluo-Aβ1-40)
Format: biochemical
measurement-setup: 10 μM test compound, 100 nM fluo-Aβ1-40, 2.5 hr at room temperature; higher % = greater effectiveness at preventing aggregation
Structures can show the parent of a compound that is named as a salt.
Use % as the unit, but write only the number.

[
  {
    "compound": "COc1ccc(OC)c(N2C(=O)OC3(CN4CCC3CC4)C2=O)c1 (stereo not shown) [Compound 29, trifluoroacetate salt]",
    "target-entity": "fluo-Aβ1-40 (Homo sapiens, UniProt P05067)",
    "unit-of-measure": "%",
    "measured": 100
  }
]

Could you now look at the following compound, please?
For the compound COc1ccc(N2C(=O)OC3(CN4CCC3CC4)C2=O)cc1 (stereo not shown) [Compound 3, trifluoroacetate salt] , give its measured Aβ aggregation inhibition (%) value.
100

###

Attribute: Aβ aggregation inhibition (%)
target-entity: fluo-Aβ1-40 (Homo sapiens, UniProt P05067)
Construct: added 100 nM of fluo-Aβ1-40 in 100 μl
test-method-notes: Aβ Aggregation Assay (Synthaloid plates, fluo-Aβ1-40)
Format: biochemical
measurement-setup: 10 μM test compound, 100 nM fluo-Aβ1-40, 2.5 hr at room temperature; higher % = greater effectiveness at preventing aggregation
Where a name gives a salt, the structure may show the parent alone.
Use % as the unit, but write only the number.

[
  {
    "compound": "Cc1ccc(N2C(=O)OC3(CN4CCC3CC4)C2=O)cc1 (stereo not drawn) [Compound 2, trifluoroacetate salt]",
    "Aβ aggregation inhibition (%)": 44
  },
  {
    "compound": "Cc1ccc(N2C(=N)CC3(CN4CCC3CC4)OC2=O)cc1 (stereo not drawn) [Compound 101, trifluoroacetate salt]",
    "Aβ aggregation inhibition (%)": 27
  },
  {
    "compound": "Cc1ccc(N2C(=O)OC3(CN4CCC3CC4)C2=O)cc1C (stereo not drawn) [Compound 16, trifluoroacetate salt]",
    "Aβ aggregation inhibition (%)": 67
  }
]

For the compound O=C1OC2(CN3CCC2CC3)C(=O)N1c1cccc(F)c1 (stereo not drawn) [Compound 25, trifluoroacetate salt] , give its measured Aβ aggregation inhibition (%) value.
5

###

target-entity: fluo-Aβ1-40 (Homo sapiens)
Construct: added 100 nM of fluo-Aβ1-40 in 100 μl
test-method-notes: Aβ Aggregation Assay (Synthaloid plates, fluo-Aβ1-40)
Format: biochemical
measurement-setup: 10 μM test compound, 100 nM fluo-Aβ1-40, 2.5 hr at room temperature; higher % = greater effectiveness at preventing aggregation
Counter-ions that a name gives are not always drawn.
experimental-readout: Aβ aggregation inhibition (%)
Use % as the unit, but write only the number.

[
  {
    "compound": "Cc1ccc(N2C(=N)CC3(CN4CCC3CC4)OC2=O)cc1Cl (centres unmarked) [Compound 109, trifluoroacetate salt]",
    "Aβ aggregation inhibition (%)": 80
  }
]

For the compound O=C1OC2(CN3CCC2CC3)C(=O)N1c1cccc(C(F)(F)F)c1 (centres unmarked) [Compound 1, trifluoroacetate salt] , give its measured Aβ aggregation inhibition (%) value.
100

For the compound Cc1cc(C)cc(N2C(=O)OC3(CN4CCC3CC4)C2=O)c1 (centres unmarked) [Compound 20, trifluoroacetate salt] , give its measured Aβ aggregation inhibition (%) value.
0

For the compound CC(C)c1ccccc1N1C(=O)OC2(CN3CCC2CC3)C1=O (centres unmarked) [Compound 28, trifluoroacetate salt] , give its measured Aβ aggregation inhibition (%) value.
0

For the compound O=C1OC2(CN3CCC2CC3)C(=O)N1c1cc(Cl)cc(Cl)c1 (centres unmarked) [Compound 7, trifluoroacetate salt] , give its measured Aβ aggregation inhibition (%) value.
62
